Data credit: PubChem BioAssay AID1259417

Assay: M. tuberculosis growth inhibition, HTS (AID 1259417);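 further: bacteria grown with compound for 5 days at 37 °C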
Conditions: M. tuberculosis growth inhibition; stronger effect = higher value; concentration not given here
The whole screen tested about 1,100 compounds, of which about 760 (69%) were called active. So high a share suggests a set chosen from earlier hits. The list shows a part of the results.
Would you mind telling me the reported inhibition of each entry?
Give bare numbers, in %.

Example compounds with recorded inhibition:
{"columns": ["compound", "scale unit", "quantitative result"],
 "data": [
  ["COc1ccc(-c2nsc(SCC(=O)NCC3CCCO3)n2)cc1 (configuration not stated)", "%", 76.1],
  ["COc1ccc(OCC(=O)Nc2cccc(Cl)c2)cc1", "%", -19],
  ["O=C(C=Cc1cccs1)N(CCCn1ccnc1)c1nc2ccccc2s1", "%", 99.1],
  ["COc1ccc(C2(CNC(=O)c3cc([N+](=O)[O-])cc([N+](=O)[O-])c3)CCCC2)cc1OC", "%", 94.9],
  ["Cc1cn2c3c(=O)[nH]c(=O)n(C)c3nc2n1CCCNc1ccccc1", "%", 31.6]
]}

Dear colleague, could you please provide inhibition for the compounds listed below?
1. O=C(c1ccco1)N(CCCn1ccnc1)c1nc2ccc(Br)cc2s1
2. CCOc1ccc(OCC(=O)Nc2cc(C)cc(C)c2)cc1
3. COC(=O)COc1ccc(CSCC(=O)Nc2ccc3ccccc3c2)cc1

98.4
38.4
58.5

Below are 7 compounds. Give each one its inhibition.
1. Cc1ccc(C(=O)N2CCN(c3ccc(NC(=O)COc4c(C)cc(C)cc4Br)cc3)CC2)cc1
2. COC(=O)CN1C(c2cccc(Cl)c2)=Nc2ccc(Cl)cc2C1c1ccccc1 (configuration not stated)
3. Cc1ccc(-c2csc(NC(=O)C[n+]3cc(-c4ccc(C)cc4)n4c3CCC4)n2)cc1
4. O=C(Nc1nc2c(s1)CCCC2)c1ccc(Br)s1
5. Cc1cc(C)cc(NC(=O)COc2cccc(C=O)c2)c1
6. COC(=O)CN1C(c2ccc(OC)cc2)=Nc2ccc(Cl)cc2C1c1ccccc1 (configuration not stated)
7. Cc1nc2ccccn2c1C(=O)NCc1ccc2c(c1)OCO2

[-20.4, 40.7, 7.92, 18.9, 13.2, 79.3, 99.6]

For the 7 compounds below, give their inhibition values.
1. Cc1ccc(-c2csc(-c3ccc(O)cc3)n2)cc1
2. O=C(C[n+]1cc(-c2ccc(Cl)cc2)n2c1CCC2)N1c2ccccc2Sc2ccccc21
3. Cc1nn(Cc2ccccc2Cl)c2sc(C(=O)NCc3ccc4c(c3)OCO4)cc12
4. O=C(c1ccco1)N(CCCn1ccnc1)c1nc2ccc(Cl)cc2s1
5. CC1=CC(C)(C)Nc2ccc(OC(=O)c3cccs3)cc21
6. Cc1cccc(-c2nsc(SCC(=O)NCC3CCCO3)n2)c1 (configuration not stated)
7. O=C(c1ccc(NC(=O)C2(c3ccccc3)CCCC2)cc1)N1CCCCC1

1: 28.7; 2: 3.46; 3: -15.9; 4: 99.1; 5: 74.6; 6: 76.8; 7: 99.3
